Just for reference, paper PMC5278714 is where these values come from.

Experiment: Multiple-ascending-dose phase 1 study: plasma and urine pharmacokinetics
Assay type: in vivo, humans
Conditions: human, plasma, iv, 100 mg, 100 mg IV once weekly x2, day 8, sampling interval 480 h, arithmetic mean
Numbered stars: 1 amine (or outer) side, 2 acyl side, 3 side chain; on linkers, the order of the positions; unused ones are H or OH. Bridge positions count the residues as written; N and C are the ends. Square brackets hold non-standard residues; d marks the D form. Peptide text beside a SMILES is read from it. * marks the point of attachment. Orn(4R-OH,5R-OCH2CH2NMe3+) = C[N+](C)(C)CCO[C@@H](N[*:3])[C@H](O)C[C@H](N[*:1])C(=O)[*:2]; pTerphenylCO(4''-OnC5H11) = CCCCCOc1ccc(-c2ccc(-c3ccc(C(=O)*)cc3)cc2)cc1; hTyr(3S-OH,4S-OH) = N[C@H](C(=O)O)[C@H](O)[C@@H](O)c1ccc(O)cc1; Pro(3S-OH,4S-Me) = C[C@H]1CN[C@H](C(=O)O)[C@H]1O; Hyp = O=C(O)[C@@H]1C[C@@H](O)CN1
testReadout: clearance
Answers without a unit are incomplete; give the number and then its unit.

Using the record for CCCCCOc1ccc(-c2ccc(-c3ccc(C(=O)N[C@H]4C[C@@H](O)[C@@H](OCC[N+](C)(C)C)NC(=O)[C@@H]5[C@@H](O)[C@@H](C)CN5C(=O)[C@H]([C@@H](C)O)NC(=O)[C@H]([C@H](O)[C@@H](O)c5ccc(O)cc5)NC(=O)[C@@H]5C[C@@H](O)CN5C(=O)[C@H]([C@@H](C)O)NC4=O)cc3)cc2)cc1 [CD101] ({pTerphenylCO(4''-OnC5H11)}-[Orn(4R-OH,5R-OCH2CH2NMe3+)]T[Hyp][hTyr(3S-OH,4S-OH)]T[Pro(3S-OH,4S-Me)]; lactam 1-C) , state its measured clearance.
2.48 mL/min
